Sourced from paper PMC8083607

# assay system: SARS-CoV-2 S2 (recombinant) (SARS-CoV-2)
# method notes: SPR
Measured Kd of individual entries
The answer is to be given in nM; state only the numeric part.

binder | assay value
FC124 (antibody, V domains shown) VH: EVQLLESGGGVVQPGRSLRLSCAASGFTFSSYAMHWVRQAPGKGLEWVALISYDGINKYYADSVNGRFTISRDNSKYTLYLQMNSLRAEDTAVYYCARAHRGSYYYGMDVWGQGTMVTVSS VL: DIELTQSPGTLSLSPGERATLYCRASQSVSSSYLAWYQQKPGQAPRLLIYGAFGRAAGIPDRFRGSGSGTQFTLTISRLEPEDSAVYFCQQYGQSPLYSFGQGTKLEIK | 38.6
FC120 (antibody, V domains shown) VH: EVQLLESGAEVKKPGASVKVSCKASGYTFTSYYMHWVRQAPGQGLEWMGIINPSGGSTSYAQKFQGRVTMTRDTSTSTVYMELSSLRSEDTAVYYCARGGGHALDIWGQGTMVTVSS VL: QSVLTQPPSVSGAPGQKVTISCSGSSSNIGNNYVSWYQQLPGTAPKLLIYDNNKRPSGIPDRFSGSKSGTSATLGITGLQTGDEADYYCGTWDSSLSAWVFGGGTKLTVL | 21.8

Read the next record carefully.
Query string: Retrieve Kd measured for FC122 (antibody, V domains shown) VH: EVQLLESGGGVVQPGRSLRLSCAASGFTFSSYAMHWVRQAPGKGLEWVALISYDGINKYYADSVNGRFTISRDNSKYTLYLQMNSLRAEDTAVYYCARAHRGSYYYGMDVWGQGTMVTVSS VL: DIELTQSPSSLSASVGDSVTITCRGSQIISRYLNWYQQKPGKAPKLLIYAASTLQSGVPSRFSGSGSGTEFTLSISSLEPEDFATYYCQQSYAIPYTFGQGTRLEI and print it.
Result string: 9.44
